# assay-target: recombinant human GM-CSF protein (human, UniProt P04141 18-144)
# Sequence (P04141 18-144 limits assumed): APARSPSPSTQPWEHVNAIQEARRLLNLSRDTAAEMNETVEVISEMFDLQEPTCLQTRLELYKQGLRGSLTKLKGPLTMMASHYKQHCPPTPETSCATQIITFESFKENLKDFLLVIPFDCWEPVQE
# measurement-notes: cell-based or functional assay
endpoint-label: IC50 for TF-1 proliferation (µg/mL)
Form entry: value (µg/mL) — number only.

Reference set, count: 5
binder: Hu50C5-19 (antibody, V domains shown, Humanized; also called 35230Hu50C5-19) VH: EVQLVQSGAEVKKPGSSVKVSCKASGYIFSPYSIHWVRQAPGQGLEWIGYINPSTGYIEYNQHFKDRTTLTADKSTSTAYMELRSLRSEDTAVYYCARGGDYEGYFDYWGQGTTVTVSS VL: DIQMTQSPSSLSASVGDRVTITCRLNENIYSFLAWYQQKPGKAPKLLVYNAETLAEDVPSRFSGSGSGTQFTLTISSLQPEDFATYYCQQHYGTPYTFGGGTKVEIK
measure-unit: µg/mL
IC50 for TF-1 proliferation: 0.017
--
binder: Hu50C5-8 (antibody, V domains shown, Humanized; also called 35230Hu50C5-8) VH: EVQLVQSGAEVKKPGSSVKVSCKASGYIFSPYSIHWVRQAPGQGLEWMGYINPSTGYIEYNQHFKDRVTITADKSTSTAYMELRSLRSEDTAVYYCARGGDYEGYFDYWGQGTTVTVSS VL: DIQMTQSPSSLSASVGDRVTITCRLNENIYSFLAWYQQKPGKAPKLLVYNAETLAEDVPSRFSGSGSGTDFTLTISSLQPEDFATYYCQQHYGTPYTFGGGTKVEIK
measure-unit: µg/mL
IC50 for TF-1 proliferation: 0.0459
--
binder: Hu50C5-23 (antibody, V domains shown, Humanized; also called 35230Hu50C5-23) VH: EVQLVQSGAEVKKPGSSVKVSCKASGYIFTPYSIHWVRQAPGQGLEWIGYINPSTGYIEYNQHFKDRTTLTADKSTSTAYMELRSLRSEDTAVYYCARGGDYEGYFDYWGQGTTVTVSS VL: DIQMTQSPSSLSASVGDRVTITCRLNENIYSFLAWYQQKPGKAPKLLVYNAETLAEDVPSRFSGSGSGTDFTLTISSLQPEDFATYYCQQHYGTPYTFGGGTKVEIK
measure-unit: µg/mL
IC50 for TF-1 proliferation: 0.0143
--
binder: 23F4 chimera (antibody, V domains shown, Human constant regions (captured by anti-human Fc IgG); also called Hu23F4-chimera) VH: QVQLQQSGPELVKPGTSMKISCKTSDYTLTSHYLHWVKQRPGQGLEWIGWIFPGDDKTKYNEKFKGKATLTSDKTSNTAYMQLSSLTSEESAVYFCARGTKYLNWNFDVWGTGTTVTVSS VL: DIVLTQPQKFLSTSVGDRVSVTCKANQNVGTTLAWYQQKPGQSPKALIYSASYRYSGVPDRFTGSGSGTDFTLTISNVQSEDLAEYFCHQYTTYPLTFGGGTKLEIK
measure-unit: µg/mL
IC50 for TF-1 proliferation: 0.00855
--
binder: Hu23F4-29 (antibody, V domains shown, Humanized) VH: EVQLVQSGAEVKKPGASVKVSCKASGYTFTSHYLHWVRQAPGQGLEWMGWIFPGDDKTKYNEKFKGRVTLTSDTSISTAYMELSRLRSDDTAVYYCARGTKYLNWNFDVWGQGTTVTVSS VL: DIQLTQSPSFLSASVGDRVTITCKANQNVGTTLAWYQQKPGKAPKALIYSASYRYSGVPSRFSGSGSGTEFTLTISSLQPEDFATYYCHQYTTYPLTFGGGTKVEIK
measure-unit: µg/mL
IC50 for TF-1 proliferation: 0.0274

Using known records, supply IC50 for TF-1 proliferation for Hu23F4-5 (antibody, V domains shown, Humanized) VH: EVQLVQSGAEVKKPGATVKISCKVSGYTFTSHYLHWVQQAPGKGLEWMGWIFPGDDKTKYNEKFKGRVTITSDTSTDTAYMELSSLRSEDTAVYYCARGTKYLNWNFDVWGQGTTVTVSS VL: DIQLTQSPSFLSASVGDRVTITCKANQNVGTTLAWYQQKPGKAPKLLIYSASYRYSGVPSRFSGSGSGTEFTLTISSLQPEDFATYYCHQYTTYPLTFGGGTKVEIK
0.0156

Using known records, supply IC50 for TF-1 proliferation for Hu50C5-6 (antibody, V domains shown, Humanized; also called 35230Hu50C5-6) VH: EVQLVQSGAEVKKPGSSVKVSCKASGYIFSPYSIHWVRQAPGQGLEWMGYINPSTGYIEYNQHFKDRVTITADKSTSTAYMELRSLRSEDTAVYYCARGGDYEGYFDYWGQGTTVTVSS VL: DIQMTQSPSSLSASVGDRVTITCRLNENIYSFLAWYQQKPGKAPKLLIYNAETLAEGVPSRFSGSGSGTDFTLTISSLQPEDFATYYCQQHYGTPYTFGGGTKVEIK
0.0239

Using known records, supply IC50 for TF-1 proliferation for Hu23F4-13 (antibody, V domains shown, Humanized) VH: EVQLVQSGAEVKKPGATVKISCKVSGYTFTSHYLHWVQQAPGKGLEWIGWIFPGDDKTKYNEKFKGRATLTSDTSTDTAYMELSSLRSEDTAVYYCARGTKYLNWNFDVWGQGTTVTVSS VL: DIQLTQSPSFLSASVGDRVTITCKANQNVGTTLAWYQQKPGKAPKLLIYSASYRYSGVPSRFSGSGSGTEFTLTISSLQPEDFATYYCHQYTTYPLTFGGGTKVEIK
0.00495

Using known records, supply IC50 for TF-1 proliferation for Hu50C5-17 (antibody, V domains shown, Humanized; also called 35230Hu50C5-17) VH: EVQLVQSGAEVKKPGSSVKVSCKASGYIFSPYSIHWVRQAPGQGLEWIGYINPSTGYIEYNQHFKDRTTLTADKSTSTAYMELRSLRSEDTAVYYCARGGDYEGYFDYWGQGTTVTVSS VL: DIQMTQSPSSLSASVGDRVTITCRLNENIYSFLAWYQQKPGKAPKLLVYNAETLAEGVPSRFSGSGSGTDFTLTISSLQPEDFATYYCQQHYGTPYTFGGGTKVEIK
0.0221

Using known records, supply IC50 for TF-1 proliferation for Hu23F4-23 (antibody, V domains shown, Humanized) VH: EVQLVQSGAEVKKPGASVKVSCKASGYTFTSHYLHWVRQAPGQGLEWMGWIFPGDDKTKYNEKFKGRVTMTRDTSISTAYMELSRLRSDDTAVYYCARGTKYLNWNFDVWGQGTTVTVSS VL: DIQLTQSPSFLSASVGDRVTITCKANQNVGTTLAWYQQKPGKSPKALIYSASYRYSGVPDRFSGSGSGTDFTLTISSLQPEDFATYFCHQYTTYPLTFGGGTKVEIK
0.00908
